Source: the supplement of paper PMC6755084

B1: minF1; a variant is named by its letters at N, in order (parent)
chain: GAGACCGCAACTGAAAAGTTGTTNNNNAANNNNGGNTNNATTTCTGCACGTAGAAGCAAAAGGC

# Variants of: B1
# measurement protocol: fraction ligated after 30 min (ligated reads / total reads); higher = more ligase activity
# reported conditions: with F1*subA RNA substrate (template-directed ligation), 42 °C
reported metric: fraction ligated
Give bare numbers.

Guide cases for fraction ligated, answers given:
sequence data	fraction ligated
GAGACCGCAACTGAAAAGTTGTATCAGAAAGATGGTTGAATTTCTGCACGTAGAAGCAAAAGGC [TCAGAGATTGA T23A]	0.00203
GAGACCGCAACTGAAAAGTTGTATCGAAATGAGGGTTGAATTTCTGCACGTAGAAGCAAAAGGC [TCGATGAGTGA T23A]	0.00204
GAGACCGCAACTGAAAAGTTGTTATAGAAATGATGGTTGATTTCTGCACGTAGAAGCAAAAGGC [ATAGATGAGTG G34T]	0.00408
GAGACCGCAACTGAAAAGTTGTTATAGAGGATGGGTTGAATTTCTGCACGTAGAAGCAAAAGGC [ATAGGATGTGA A29G]	0.00633
GAGACCGCAACTGAAAAGTTGTTATAGAAATATGGTTGAATTTCTGCACGTAGAAGCAAAAGGC [ATAGATATTGA]	0.00398
GAGACCGCAACTGAAAAGTTGTATCAGAAATGGATGGTTATTTCTGCACGTAGAAGCAAAAGGC [TCAGATGGGTT T23A G34A G35T T37G]	0.00134
GAGACCGCAACTGAAAAGTTGTTTCAGAAATGTGGGTTAATTTCTGCACGTAGAAGCAAAAGGC [TCAGATGTGTA]	0.000796
GAGACCGCAACTGAAAAGTTGTTACAGAATGGATGGTTAATTTCTGCACGTAGAAGCAAAAGGC [ACAGTGGAGTA G34T]	0.0155

Provide fraction ligated for all items below, preserving their order.
1. GAGACCGCAACTGAAAAGTTGTTACAGAAATGGTGGGTTATTTCTGCACGTAGAAGCAAAAGGC [ACAGATGGGTT G34T T37G]
2. GAGACCGCAACTGAAAAGTTGTACAGAAATGAGGGTTGAATTTCTGCACGTAGAAGCAAAAGGC [CAGATGAGTGA T23A]
3. GAGACCGCAACTGAAAAGTTGTTATCAGAAAGGATGGTTATTTCTGCACGTAGAAGCAAAAGGC [ATCAAAGGGTT A28G G34A G35T T37G]
4. GAGACCGCAACTGAAAAGTTGTATCGAATGATGGGTTGAATTTCTGCACGTAGAAGCAAAAGGC [TCGAGATGTGA T23A A29T]
5. GAGACCGCAACTGAAAAGTTGTTATCAGTGGATGGTTGAATTTCTGCACGTAGAAGCAAAAGGC [ATCAGGATTGA A28G A29T]
6. GAGACCGCAACTGAAAAGTTGTTAGAAAGGATGGGTTGAATTTCTGCACGTAGAAGCAAAAGGC [AGAAGATGTGA A29G]
7. GAGACCGCAACTGAAAAGTTGTTTCAAATGGATGGTTGAATTTCTGCACGTAGAAGCAAAAGGC [TCAAGGATTGA A29T]
8. GAGACCGCAACTGAAAAGTTGTTACAGAAAGATGGGTTAATTTCTGCACGTAGAAGCAAAAGGC [ACAGAGATGTA]

Ans.
1: 0.0016; 2: 0.00277; 3: 0.00185; 4: 0.00198; 5: 0.00153; 6: 0.00203; 7: 0.00468; 8: 0.00268
